Hey, just so you know, these numbers are from PubChem BioAssay.

# tested_on: Peroxisome proliferator-activated receptor gamma (Homo sapiens) + Nuclear receptor corepressor 2 (Homo sapiens) (UniProt P37231+Q9Y618)
# Sequence (P37231 whole entry, looked up): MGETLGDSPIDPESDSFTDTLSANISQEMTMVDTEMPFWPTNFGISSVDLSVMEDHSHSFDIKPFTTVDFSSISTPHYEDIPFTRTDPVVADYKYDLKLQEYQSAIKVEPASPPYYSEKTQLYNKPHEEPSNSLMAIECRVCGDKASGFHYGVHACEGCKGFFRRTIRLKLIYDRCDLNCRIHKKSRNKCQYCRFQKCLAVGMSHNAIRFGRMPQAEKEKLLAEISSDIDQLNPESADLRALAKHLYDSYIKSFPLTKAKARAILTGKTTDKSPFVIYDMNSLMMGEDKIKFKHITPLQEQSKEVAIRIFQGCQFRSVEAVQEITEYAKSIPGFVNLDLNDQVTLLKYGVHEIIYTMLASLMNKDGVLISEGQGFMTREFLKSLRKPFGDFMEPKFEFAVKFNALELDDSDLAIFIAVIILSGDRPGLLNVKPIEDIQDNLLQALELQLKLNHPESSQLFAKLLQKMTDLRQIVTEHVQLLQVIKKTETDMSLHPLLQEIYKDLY
# Sequence (Q9Y618 whole entry, looked up): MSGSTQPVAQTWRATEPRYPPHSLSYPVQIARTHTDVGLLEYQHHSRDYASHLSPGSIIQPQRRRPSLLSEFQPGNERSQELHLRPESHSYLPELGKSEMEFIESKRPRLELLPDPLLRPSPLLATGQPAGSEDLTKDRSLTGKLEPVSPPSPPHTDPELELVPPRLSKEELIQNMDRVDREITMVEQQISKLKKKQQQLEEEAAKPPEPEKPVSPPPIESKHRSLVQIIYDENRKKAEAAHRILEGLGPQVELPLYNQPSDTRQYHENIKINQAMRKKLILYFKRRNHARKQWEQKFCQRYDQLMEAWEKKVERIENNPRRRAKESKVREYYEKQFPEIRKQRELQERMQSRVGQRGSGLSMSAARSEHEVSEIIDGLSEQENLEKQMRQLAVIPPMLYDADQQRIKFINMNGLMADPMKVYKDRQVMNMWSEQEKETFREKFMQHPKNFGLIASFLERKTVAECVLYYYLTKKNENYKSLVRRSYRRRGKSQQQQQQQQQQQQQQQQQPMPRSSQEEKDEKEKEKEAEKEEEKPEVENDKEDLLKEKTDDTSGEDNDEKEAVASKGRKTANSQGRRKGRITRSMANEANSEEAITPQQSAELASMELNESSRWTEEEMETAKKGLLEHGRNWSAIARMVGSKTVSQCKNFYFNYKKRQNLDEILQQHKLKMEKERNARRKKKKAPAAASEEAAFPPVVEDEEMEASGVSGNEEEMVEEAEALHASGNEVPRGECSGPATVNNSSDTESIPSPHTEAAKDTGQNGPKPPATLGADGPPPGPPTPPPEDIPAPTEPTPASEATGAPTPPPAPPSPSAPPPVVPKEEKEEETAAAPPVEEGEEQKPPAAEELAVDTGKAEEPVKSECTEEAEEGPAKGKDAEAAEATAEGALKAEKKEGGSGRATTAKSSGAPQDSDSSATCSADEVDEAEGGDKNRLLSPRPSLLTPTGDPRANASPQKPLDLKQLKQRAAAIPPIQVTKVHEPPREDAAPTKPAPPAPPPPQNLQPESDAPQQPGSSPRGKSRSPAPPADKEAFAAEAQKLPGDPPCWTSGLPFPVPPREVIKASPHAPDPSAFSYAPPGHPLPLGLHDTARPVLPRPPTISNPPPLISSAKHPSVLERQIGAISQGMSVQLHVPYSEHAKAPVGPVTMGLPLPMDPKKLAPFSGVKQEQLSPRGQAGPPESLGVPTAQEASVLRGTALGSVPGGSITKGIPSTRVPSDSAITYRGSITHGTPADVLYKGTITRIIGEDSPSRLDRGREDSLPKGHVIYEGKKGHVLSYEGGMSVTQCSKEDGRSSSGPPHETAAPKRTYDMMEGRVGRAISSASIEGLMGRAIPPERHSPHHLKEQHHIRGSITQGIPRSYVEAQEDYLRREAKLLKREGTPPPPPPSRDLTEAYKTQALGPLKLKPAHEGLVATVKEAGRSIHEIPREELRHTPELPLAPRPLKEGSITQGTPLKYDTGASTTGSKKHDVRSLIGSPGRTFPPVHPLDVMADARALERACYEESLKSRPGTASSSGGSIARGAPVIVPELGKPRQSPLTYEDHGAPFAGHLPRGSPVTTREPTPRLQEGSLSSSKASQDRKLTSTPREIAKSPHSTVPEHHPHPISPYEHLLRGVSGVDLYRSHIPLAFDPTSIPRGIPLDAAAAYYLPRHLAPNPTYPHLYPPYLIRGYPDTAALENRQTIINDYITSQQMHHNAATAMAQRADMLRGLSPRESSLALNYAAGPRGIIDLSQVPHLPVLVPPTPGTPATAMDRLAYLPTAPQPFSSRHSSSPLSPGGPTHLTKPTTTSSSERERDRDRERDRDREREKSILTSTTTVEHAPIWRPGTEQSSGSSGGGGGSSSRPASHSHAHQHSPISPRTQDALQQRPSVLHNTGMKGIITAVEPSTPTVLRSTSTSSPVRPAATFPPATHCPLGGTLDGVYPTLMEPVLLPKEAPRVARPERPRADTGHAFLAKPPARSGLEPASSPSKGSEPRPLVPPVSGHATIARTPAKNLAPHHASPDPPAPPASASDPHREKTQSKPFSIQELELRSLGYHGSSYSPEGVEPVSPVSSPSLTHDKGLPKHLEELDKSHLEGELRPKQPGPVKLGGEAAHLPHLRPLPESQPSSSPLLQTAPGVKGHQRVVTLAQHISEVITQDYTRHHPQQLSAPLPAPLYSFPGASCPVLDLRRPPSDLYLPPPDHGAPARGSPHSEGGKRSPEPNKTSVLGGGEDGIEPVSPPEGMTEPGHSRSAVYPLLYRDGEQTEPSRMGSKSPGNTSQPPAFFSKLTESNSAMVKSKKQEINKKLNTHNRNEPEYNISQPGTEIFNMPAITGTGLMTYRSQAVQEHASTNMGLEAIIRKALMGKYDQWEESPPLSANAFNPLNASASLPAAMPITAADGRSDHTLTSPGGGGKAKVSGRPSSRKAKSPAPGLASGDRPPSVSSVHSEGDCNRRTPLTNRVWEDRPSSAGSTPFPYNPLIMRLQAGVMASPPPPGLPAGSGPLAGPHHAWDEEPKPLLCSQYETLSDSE
# protocol: agonists of PPARg-NCOR2 corepressor interaction, counter-screen for NR2E3 agonist project, biochemical, TR-FRET (AID 504787);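 also: 0% = DMSO vehicle and 100% = wells without protein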
# conditions_used: TR-FRET PPARg-NCOR2 coregulator interaction, at 3.98 µM, hits give high values
Some of the results follow.
Quick list: inhibition per entry.
readout_kind: inhibition (%)

| molecule | readout_kind | measurement_units | result |
| --- | --- | --- | --- |
| Cc1cccc(NC(=O)c2sc3nc(N4CCOCC4)c4c(c3c2N)CCCC4)c1 | inhibition | % | -0.47 |
| COc1cc2[nH]c(=S)n(Cc3ccc(C)o3)c(=O)c2cc1OC | inhibition | % | -2.05 |
| O=C1C(=O)N(CCN2CCOCC2)C(c2cccc(Cl)c2)/C1=C(/O)c1ccc2c(c1)OCO2 (stereo not drawn) | inhibition | % | 31.2 |
| CC(C)c1ccc(C2C(C(=O)c3ccco3)=C(O)C(=O)N2CC2CCCO2)cc1 (stereo not drawn) | inhibition | % | 1.84 |
| N#Cc1c(N)nc2c3c(sc(=N)c2c1N)NC(=O)CC3c1ccccc1Cl (stereo not drawn) | inhibition | % | -7.41 |
| COc1cccc(-n2c(=S)[nH]c3c(oc4ccccc43)c2=O)c1 | inhibition | % | 8.55 |
| COCCNC(=O)Nc1ccc2nc(-c3ccco3)c(-c3ccco3)nc2c1 | inhibition | % | -6.1 |
| N#Cc1ccccc1Sc1ccccc1C(=O)OCC(=O)NC1CCCCC1 | inhibition | % | 21.8 |

====

# tested_on: Nuclear receptor coactivator 1 (Homo sapiens)
# protocol: SRC1 coactivator transcriptional activity inhibitors, confirmation, cell-based, luminescence, quadruplicate (AID 588820);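 also: 0% = DMSO wells and 100% = gossypol 36 µM treated wells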
# conditions_used: HEK293 GAL4-SRC1 luciferase reporter, at 3.6 µM
Active and inactive are the calls of the source.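 How the source made its calls: active means mean inhibition above 46.68%, the untreated control wells mean plus 3 SD; inactive means the rest.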
Possible outcomes: active, inactive

| molecule | label_value |
| --- | --- |
| Cc1cc2[nH]c(=O)c(=O)[nH]c2cc1S(=O)(=O)NC1CCC(C)CC1 (stereo not drawn) | inactive |
| COc1ccc(NC(=O)C2Cc3c(-c4cccc(C(C)=O)c4)ccnc3O2)cc1OC (stereo not drawn) | inactive |
| Cc1csc2ncnc(NCCc3ccccn3)c12 | inactive |
| CCOC(=O)c1c(CN(CC)CC)n(C)c2cc(Br)c(O)cc12 | inactive |
| CCOC(=O)c1ccccc1OC(=O)NNc1ccccc1 | inactive |
| O=C(N/N=C/c1cc(Br)ccc1O)C(c1ccncc1)N1CCOCC1 (stereo not drawn) | inactive |
| NC(=Nc1nc(-c2ccccn2)cc2ccccc12)c1ccccn1 | active |
| COc1cccc(Nc2ncnc3ccc(Br)cc23)c1 | active |
| O=C1NC2(CCN(Cc3ccccc3)CC2)Oc2ccccc21 | inactive |
| CN1CCN(c2ccccc2/C=C2/C(=O)Nc3ccccc32)CC1 | inactive |
| COC(=O)CCn1nnc(-c2ccc(C(C)C)cc2)n1 | inactive |
| COc1cccc(N2CCN(c3ncnc4c3cnn4-c3ccc(C)cc3C)CC2)c1 | active |
| COc1ccc(C(=O)NCCN(C)C)c2nc3ccccc3cc12 | inactive |
| Cc1ccc(C(=O)Nc2c3c(nn2C(C)(C)C)CS(=O)(=O)C3)cc1[N+](=O)[O-] | inactive |
| C=CCn1c(Oc2ccccc2F)nc2c1c(=O)n(C)c(=O)n2C | inactive |
| COc1cc2c(cc1OC)C(C)N(C(=O)c1cccc([N+](=O)[O-])c1)CC2 (stereo not drawn) | inactive |
| O=C(Nc1ccccc1)N1CCCN(c2ccc(C(F)(F)F)cn2)CC1 | inactive |
| O=C(NC1CCCC1)C1CCN(C(=O)c2cccc(Cl)c2)CC1 | inactive |
| COc1ccc(-n2cnc(N)c2C(=O)c2cccc([N+](=O)[O-])c2)cc1 | inactive |
| CN(C)c1ccc(/C=C/c2ccc3ccccc3[n+]2C)cc1 | inactive |
| CC1(c2ccc3ccccc3c2)NC(=O)N(CC(=O)N2CCN(Cc3ccccc3)CC2)C1=O (stereo not drawn) | inactive |
| Cn1c(C(=O)O)c(CC(=O)Nc2ccc3c(c2)OCCO3)c2ccccc21 | inactive |
| COc1ccc(NC(=O)NNC(=O)COc2ccc3ccccc3c2)cc1OC | inactive |
